Catalogue of IC50 m values
ASSAYED TARGET: murine MMP-12 (mouse, UniProt P34960 110-473, limits assumed)
Sequence (P34960 110-473 limits assumed): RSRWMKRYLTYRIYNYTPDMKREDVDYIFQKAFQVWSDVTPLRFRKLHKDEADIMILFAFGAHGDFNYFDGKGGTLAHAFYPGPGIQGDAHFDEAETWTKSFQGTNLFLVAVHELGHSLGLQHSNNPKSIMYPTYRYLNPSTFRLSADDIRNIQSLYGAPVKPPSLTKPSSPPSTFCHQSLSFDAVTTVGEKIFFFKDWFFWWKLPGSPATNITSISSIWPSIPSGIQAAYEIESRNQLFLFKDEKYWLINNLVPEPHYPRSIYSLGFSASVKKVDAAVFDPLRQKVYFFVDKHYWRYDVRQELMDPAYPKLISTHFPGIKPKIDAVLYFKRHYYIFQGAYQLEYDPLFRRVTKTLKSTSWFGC
PROTOCOL NOTES: cell-based or functional assay

# count of solved cases: 5
| BINDER | IC50 m |
| --- | --- |
| 539B-M0063-C07 (Fab, V domains shown) VH: EVQLLESGGGLVQPGGSLRLSCAASGFTFSPYWMSWVRQAPGKGLEWVSGISPSGGITFYADSVKGRFTISRDNSKNTLYLQMNSLRAEDTAVYYCAKDIRGAYSSGLFDYWGRGTLVTVSS VL: DIQMTQSPSSLSASVGDRVTITCRANQSIYTYLNWYQQKPGKAPELLIYAASSLQSGVPSRFSGSGSGTDFTLTISSLQPEDFATYYCQQAGIFGQGTKLEIK | < 10 nM (not printed; inferred) |
| 539B-M0071-A01 (Fab, V domains shown) VH: EVQLLESGGGLVQPGGSLRLSCAASGFTFSEYWMTWVRQAPGKGLEWVSGISPSGGMTFYADSVKGRFTISRDNSKNTLYLQMNSLRAEDTAVYYCAKDIRGAYSSGLFDYWGRGTLVTVSS VL: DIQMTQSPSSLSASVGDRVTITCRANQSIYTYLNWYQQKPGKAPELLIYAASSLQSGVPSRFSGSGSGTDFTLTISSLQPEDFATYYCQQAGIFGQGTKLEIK | > 10 nM (not printed; inferred) |
| 539B-M0069-D10 (Fab, V domains shown) VH: EVQLLESGGGLVQPGGSLRLSCAASGFTFSLYHMHWVRQAPGKGLEWVSGIGPSGGWTIYADSVKGRFTISRDNSKNTLYLQMNSLRAEDTAVYYCAKDIRGAYSSGLFDYWGRGTLVTVSS VL: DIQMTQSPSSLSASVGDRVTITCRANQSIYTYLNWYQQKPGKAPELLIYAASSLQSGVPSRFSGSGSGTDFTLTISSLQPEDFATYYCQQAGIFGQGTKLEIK | < 10 nM (not printed; inferred) |
| 539B-M0071-D09 (Fab, V domains shown) VH: EVQLLESGGGLVQPGGSLRLSCAASGFTFSPYWMHWVRQAPGKGLEWVSGISSSGGDTLYADSVKGRFTISRDNSKNTLYLQMNSLRAEDTAVYYCAKDIRGAYSSGLFDYWGRGTLVTVSS VL: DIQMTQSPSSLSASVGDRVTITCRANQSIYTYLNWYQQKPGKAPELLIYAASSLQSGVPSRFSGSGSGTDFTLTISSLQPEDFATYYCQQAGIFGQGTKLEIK | < 10 nM (not printed; inferred) |
| 539B-M0063-B11 (Fab, V domains shown) VH: EVQLLESGGGLVQPGGSLRLSCAASGFTFSPYWMHWVRQAPGKGLEWVSGIGPSGGLTFYADSVKGRFTISRDNSKNTLYLQMNSLRAEDTAVYYCAKDIRGAYSSGLFDYWGRGTLVTVSS VL: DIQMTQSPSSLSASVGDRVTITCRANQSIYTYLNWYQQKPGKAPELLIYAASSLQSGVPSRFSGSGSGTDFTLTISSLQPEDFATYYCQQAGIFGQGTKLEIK | > 10 nM (not printed; inferred) |

Next up:
Input: # get_value(readout='IC50 m', item= 539B-M0008-H09 Fab (Fab, V domains shown, N-glycosylation site in LC CDR1; also called M08H09) VH: EVQLLESGGGLVQPGGSLRLSCAASGFTFSDYNMHWVRQAPGKGLEWVSYIGPSGGYTHYADSVKGRFTISRDNSKNTLYLQMNSLRAEDTAVYYCAKDIRGAYSSGLFDYWGRGTLVTVSS VL: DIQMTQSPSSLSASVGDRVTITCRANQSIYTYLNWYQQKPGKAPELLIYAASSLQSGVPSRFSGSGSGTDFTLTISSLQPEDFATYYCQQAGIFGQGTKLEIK )
Output: < 10 nM (not printed; inferred)
